Assay: qHTS assay for MDR1-selective chemotherapeutics: Primary screen using the parental adenocarcinoma cell KB-3-1; also: nearly all actives have a fitted effect of over 60% in size
Conditions: KB-3-1 viability, CellTiter-Glo ATP luminescence, 72 h; series mostly up to 46.1 µM
Screen size: about 400,000 compounds; about 5,500 (1.4%) were called active. Inconclusive results (about 9%) are left out. Calls follow the shape of the dose curve; as a rule, active = well fitted cell-killing curve with a large enough effect; inconclusive = small, poorly fitted or top-dose-only effect, or effect the other way; inactive = flat fitted curve, though single readings scatter. This excerpt belongs to a sample that is enriched for actives.
Possible outcomes: active, inactive

> print(dat)
                                given.smiles  classification
 1            Cn1ccc(=NC=C(C#N)C#N)c2ccccc21        inactive
 2  CCCC1=Nc2cc(C(=O)NCc3ccco3)ccc2Sc2ccccc21          active
 3  Cc1ccc(NC(=O)c2cc(S(=O)(=O)NCCC3=CCCCC3)ccc2F)cc1C          active
 4  CC(C)(C)c1cc(C(=O)NN)n(Cc2ccc(Cl)cc2Cl)n1        inactive
 5  Cc1ccc(C)c(N2CCN(C(=O)Cn3ncc4c(=O)oc5ccc(C)cc5c43)CC2)c1        inactive
 6  CCc1ccc(NC(=O)c2cc(S(=O)(=O)NC3CCCCCC3)ccc2F)cc1        inactive
 7  COc1ccc(CCNS(=O)(=O)c2ccc(C(=O)NCc3ccco3)cc2)cc1OC        inactive
 8    N#CC(C#N)=CN=c1ccn(Cc2ccc(Cl)cc2Cl)cc1          active
 9  CCCC1=Nc2cc(C(=O)NCCN3CCCC3)ccc2Sc2ccccc21        inactive
10  N#Cc1nc(/C=C/c2ccc(F)cc2)oc1NCc1ccc(F)cc1        inactive
11  CC(C)c1ccc(NC(=O)c2cc(S(=O)(=O)N3CCc4ccccc4C3)ccc2F)cc1        inactive

###

Assay: qHTS assay for MDR1-selective chemotherapeutics: Primary screen using the parental adenocarcinoma cell KB-3-1; also: nearly all actives have a fitted effect of over 60% in size
Conditions: KB-3-1 viability, CellTiter-Glo ATP luminescence, 72 h; series mostly up to 46.1 µM
Hit rate of the full screen: of about 400,000 compounds, about 5,500 (1.4%) were called active. Roughly 9% stayed inconclusive and do not appear here. The call rests on the fitted dose curve; in most records, active means well fitted cell-killing curve with a large enough effect; inconclusive means small, poorly fitted or top-dose-only effect, or effect the other way; inactive means flat fitted curve, though single readings scatter. Shown is part of a subset that was picked to be rich in actives.
Possible outcomes: active, inactive

> print(dat)
                                    compound  classification
 1  COc1cccc(N2CCN(S(=O)(=O)c3cc(Br)cc4c3N(C(=O)C3CC3)CC4)CC2)c1        inactive
 2  COCCNc1nc(-n2nc(C)cc2C)nc2sc3c(c12)CCCC3          active
 3               [O-][n+]1ccc(OCc2ccccc2)cc1        inactive
 4  COc1ccc(-c2c(C)nn3c(N4CCC(C(=O)NCCC(C)C)CC4)cc(C)nc23)cc1OC        inactive
 5  O=C(NCc1ccc(F)cc1)c1ccc(Cn2c(SCc3ccc(F)cc3)nc3cccnc32)cc1        inactive
 6       CCOC(=O)c1cc2ccccc2n1CC(=O)c1ccccc1        inactive
 7             Fc1ccccc1Oc1ncnc2c1oc1ccccc12        inactive
 8  CN1C(=O)c2ccccc2Sc2ccc(NC(=O)Cc3ccc(Cl)cc3)cc21        inactive
 9        c1ccc(CNCc2ccc(CNCc3ccccc3)cc2)cc1        inactive
10                        CN(O)C(=S)c1ccccc1          active
11  Cn1ccc2cc(S(=O)(=O)N3CCCC(C(=O)NCc4ccccc4F)C3)ccc21 (stereo unspecified)        inactive
